system: C. krusei; test: Antifungal Activity Assay (broth microtiter MIC), C. krusei; type: cell-based, Candida krusei; conditions: Pichia kudriavzevii, ATCC6258, 48 h, Table 3b (additional results); ATCC 6258; 3 replicates; MIC recorded at 48 h; read-out: MIC, C. krusei ATCC 6258
parameter: MIC

# smilesRepr, observedResult
data = [
    ("COc1ccc(F)cc1[C@H](Cn1c(=O)n([C@@H](C)C(=O)NC2CCC2)c(=O)c2c(C)c(-n3nccn3)sc21)OCCO", "0.25 to 1 µg/mL"),
]

Each compound below has a recorded value; state its MIC.
1. COc1ccc(F)cc1[C@H](Cn1c(=O)n(C(C)(C)C(=O)NC(C)C)c(=O)c2c(C)c(-n3nccn3)sc21)O[C@H]1CC[C@@H](C(=O)O)CC1
2. COCCO[C@@H](Cn1c(=O)n([C@H](C)C(=O)NC(C)C)c(=O)c2c(C)c(-n3nccn3)sc21)c1cc(F)ccc1OC
3. COc1ccc(F)cc1[C@H](Cn1c(=O)n([C@H](C)C(=O)N(C)C(C)C)c(=O)c2c(C)c(-n3nccn3)sc21)OCCC#N
4. COc1ccc(F)cc1[C@H](Cn1c(=O)n(C(C)(C)C(=O)NC(C)C)c(=O)c2c(C)c(-n3nccn3)sc21)OCCCO
5. CCOC(=O)C(C)(C)n1c(=O)c2c(C)c(-n3nccn3)sc2n(C[C@H](OCCO)c2cc(F)ccc2OC)c1=O
6. COc1ccc(F)cc1[C@H](Cn1c(=O)n(C(C)(C)C(=O)N2CCCC2)c(=O)c2c(C)c(-n3nccn3)sc21)OC(C)C

Result:
0.06 to 0.249 µg/mL
2.01 to 4 µg/mL
2.01 to 4 µg/mL
0.25 to 1 µg/mL
1.01 to 2 µg/mL
0.25 to 1 µg/mL

Each compound below has a recorded value; state its MIC.
1. CCO[C@@H](Cn1c(=O)n(C(C)(C)C(=O)N2CCCC2)c(=O)c2c(C)c(-n3nccn3)sc21)c1cc(F)ccc1OC
2. Cc1c(-n2nccn2)sc2c1c(=O)n(C(C)(C)C(=O)NC(C)C)c(=O)n2C[C@H](OC1CCOCC1)c1cc(F)ccc1OCC1COC1
3. COc1ccc(F)cc1[C@H](Cn1c(=O)n([C@H](C)C(=O)N(C)C(C)C)c(=O)c2c(C)c(-n3nccn3)sc21)OC1CCC(=O)CC1
4. COc1ccc(F)cc1[C@H](Cn1c(=O)n(C(C)(C)C(=O)NC(C)C)c(=O)c2c(C)c(-n3nccn3)sc21)OC(C)=O
5. COc1ccc(F)cc1[C@H](Cn1c(=O)n(C(C)(C)C(=O)NC(C)C)c(=O)c2c(C)c(-n3nccn3)sc21)O[C@H]1CC[C@H](C(=O)O)CC1
6. [2H]C([2H])([2H])Oc1ccccc1[C@H](Cn1c(=O)n(C(C)(C)C(N)=O)c(=O)c2c(C)c(-n3nccn3)sc21)OC1CCOCC1

Result:
1.01 to 2 µg/mL
0.25 to 1 µg/mL
0.25 to 1 µg/mL
0.25 to 1 µg/mL
0.06 to 0.249 µg/mL
1.01 to 2 µg/mL

The reported numbers originate from patent US10800791B2.
